kon values, listed per item
molecular target: biotinylated C3b (UniProt P01024); test: SPR, Biacore 3000; biotinylated C3b on streptavidin chip, peptide injected; 1:1 fit
Bridge positions count the residues as written; N and C are the ends. Square brackets hold non-standard residues; d marks the D form. Trp(1-Me) = Cn1cc(C[C@H](N)C(=O)O)c2ccccc21; Nle = CCCC[C@H](N)C(=O)O; Sar = CNCC(=O)O
Could you give me the number in M⁻¹ s⁻¹? Just the number is fine.

Some binders with recorded kon:
Ac-ICV[Trp(1-Me)]QDW[Sar]AHRC[Nle]-NH2 (disulfide 2-12; SMILES CCCC[C@H](NC(=O)[C@@H]1CSSC[C@H](NC(=O)[C@@H](NC(C)=O)[C@@H](C)CC)C(=O)N[C@@H](C(C)C)C(=O)N[C@@H](Cc2cn(C)c3ccccc23)C(=O)N[C@@H](CCC(N)=O)C(=O)N[C@@H](CC(=O)O)C(=O)N[C@@H](Cc2c[nH]c3ccccc23)C(=O)N(C)CC(=O)N[C@@H](C)C(=O)N[C@@H](Cc2c[nH]cn2)C(=O)N[C@@H](CCCNC(=N)N)C(=O)N1)C(N)=O) [Ac-Ic[CV(1-MeW)QDW(N-MeG)AHRC](Nle)-NH2] : 1.5e+06
ICVWQDWGAHRCIK (not fully specified; N-terminal acetyl; 1-methyl-Trp at 4; N-methyl-Gly (Sar) at 8; disulfide Cys2-Cys12 (cyclic); two mini-PEG-3 spacers between Ile13 and a C-terminal Lys-NH2; albumin-binding small molecule (ABM) on the Lys side chain) [Peptide 17-ABM] : 1.2e+06

As a next step, examine the binder that follows.
The binder listed as Peptide 17-ABP (propiolic acid on the N-terminus, joined by triazole to the azido-Lys of the peptide 17 chain; N-terminal acetyl; 1-methyl-Trp at 4; N-methyl-Gly (Sar) at 8; disulfide Cys2-Cys12 (cyclic); two mini-PEG-3 spacers between Ile13 and a C-terminal Lys-NH2; 2-azidoacetyl on the Lys side chain, joined by azide-alkyne cycloaddition (triazole) to the ABP) peptide: ICVWQDWGAHRCIK RLIEDICLPRWGCLWEDD has a reported kon of 100000

Origin of measurements: patent US20120178694A1
